test: gradient 5% acetonitrile 3 min, to 50% in 2 min, to 85% in 15 min, held 3 min, 100 µL/min; details: column: Zorbax Extend-C18 2.1 x 50 mm; eluents: water / acetonitrile, 0.1% formic acid
Entries whose RP-LC retention time is below 800 s take yes (1); entries at or above 800 s take no (0).

COMPOUND	ASSIGNED CLASS
CCN(CC)c1ccc(C2=NNC(=O)CC2C)cc1[N+](=O)[O-] (configuration not stated)	yes (1)
Fc1ccccc1-c1noc(Cc2nnc(-c3cccc(Cl)c3)o2)n1	no (0)
O=C(C1CCN(S(=O)(=O)c2ccc(-c3noc(C4CCCCC4)n3)cc2)CC1)N1CCCC1	no (0)
Cc1cccc(C)c1NC(=O)CN1C(=O)NC(c2ccc(Cl)cc2)C2=C1COC2=O (configuration not stated)	yes (1)
Cc1cc2c(=O)n(CC(=O)Nc3ccc(F)cc3)c3cccnc3n2n1	yes (1)
Cc1ccc(Nc2c(-c3ccc(N(C)C)cc3)nc3cnccn23)c(Br)c1	no (0)
Cc1cnc(C2CC2)n1CCNS(=O)(=O)c1cc(F)cc(F)c1	yes (1)
COc1ccc2[nH]c(=O)c(CCC(=O)N(C)Cc3cn(C)nc3C)cc2c1	yes (1)
O=S(=O)(c1cccn2c(SCc3cccc(Br)c3)nnc12)N1CCCCC1	no (0)
CC(C)c1ccc(CNc2nc3ccncc3n(Cc3ccccc3)c2=O)cc1	no (0)

---

test: gradient 5% acetonitrile 3 min, to 50% in 2 min, to 85% in 15 min, held 3 min, 100 µL/min; conditions: column: Zorbax Extend-C18 2.1 x 50 mm; eluents: water / acetonitrile, 0.1% formic acid

COMPOUND	RP-LC retention time (s)
COc1ccc2c(c1)CC(C(=O)N1CCN(C(=O)c3ccco3)CC1)CO2 (stereo not drawn)	725
COC(=O)c1ncn2c1C(=O)N(c1ccc(F)cc1C)C(C)(C(=O)NCc1ccccc1)C2 (stereo not drawn)	708
O=C(Cn1c(=O)n(C2CC2)c(=O)c2nscc21)NCc1cccs1	670

---

Measured RP-LC retention time, listed per entry.
experiment: gradient 5% acetonitrile 3 min, to 50% in 2 min, to 85% in 15 min, held 3 min, 100 µL/min; conditions: column: Zorbax Extend-C18 2.1 x 50 mm; eluents: water / acetonitrile, 0.1% formic acid

COMPOUND	UNIT ABBREVIATION	RP-LC retention time
CCc1cccc(NC(=O)N2CCc3c(c(COc4ccccc4)nn3C)C2)c1	s	934
CC12CC(NC(=O)N1c1cccc(C(=O)NCc3ccco3)c1)c1cc(Br)ccc1O2 (centres undefined)	s	846
CCOC(=O)c1cnc2nc(C)ccc2c1Nc1cc(OC)c(OC)c(OC)c1	s	671
CCC(=O)N1CCc2cc(N3CC(C(=O)Nc4ccc(OC)cc4)CC3=O)ccc21 (centres undefined)	s	714

---

Quick list: RP-LC retention time per entry.
experiment: gradient 5% acetonitrile 3 min, to 50% in 2 min, to 85% in 15 min, held 3 min, 100 µL/min; conditions: column: Zorbax Extend-C18 2.1 x 50 mm; eluents: water / acetonitrile, 0.1% formic acid
ASSAY METRIC: RP-LC retention time (s)

COMPOUND	ASSAY METRIC	NUMERIC RESULT
CCOc1ccc(C(Nc2ccccn2)c2ccc3ccc(C)nc3c2O)cc1C (configuration not stated)	RP-LC retention time	811
Cc1ccc(Cn2c(=O)n(CCNC(=O)C3CCC3)c3ncccc32)cc1	RP-LC retention time	779
O=C(NC1CC1)c1nc(C(=O)N2CCN(c3ccccc3F)CC2)cs1	RP-LC retention time	818
COc1ccc(C)cc1NC(=O)Cn1ncc2c(c1=O)N(C1CC1)C(=O)CS2	RP-LC retention time	794
COc1ccc2c(c1)C1(CCN(C(=O)COc3ccccc3)C1)C(=O)N2C (configuration not stated)	RP-LC retention time	791
Cc1cc2nc(CSc3nnc(-c4ccc(Cl)cc4)o3)cc(=O)n2o1	RP-LC retention time	786
COc1ccc(CNC(=O)c2c(O)c3cccnc3[nH]c2=O)cc1OC	RP-LC retention time	804

---

assay: gradient 5% acetonitrile 3 min, to 50% in 2 min, to 85% in 15 min, held 3 min, 100 µL/min; details: column: Zorbax Extend-C18 2.1 x 50 mm; eluents: water / acetonitrile, 0.1% formic acid
Binned RP-LC retention time; ranges: lower range: < 700 s; middle range: ≥ 700 s and < 800 s; upper range: ≥ 800 s

COMPOUND	ASSIGNED CLASS
CCC(C)n1c(=O)c2ccccc2n(Cc2nc(-c3cccc(C(F)(F)F)c3)no2)c1=O (stereo not given)	upper range
CCOC(=O)c1c(S(=O)(=O)N2CCC(C(=O)Nc3ccc(C)cc3)CC2)c(C)n(C)c1C	upper range
CCOC(=O)c1sc(NC(=O)C2CCCCN2S(=O)(=O)c2cccs2)cc1C (stereo not given)	upper range
CC(C)c1ccc(NC(=O)Cn2nc(N3CCSCC3)c3ccccc3c2=O)cc1	upper range
CCN1C(=O)CCc2cc(NS(=O)(=O)c3cccc(Br)c3)ccc21	upper range
CCn1nccc1-c1cccc(-c2noc(-c3ccc(CS(=O)(=O)c4ccccc4)cc3)n2)c1	upper range
CCN(CC)S(=O)(=O)c1ccc2nc(NCc3ccc4c(c3)OCO4)cnc2c1	upper range
CCCCn1c(C(C)NC(=O)c2ccco2)nc2ccccc21 (stereo not given)	lower range
COc1ccc2c(c1)C1(CCN(C(=O)Cc3ccc(OC)c(Cl)c3)C1)C(=O)N2 (stereo not given)	middle range
Cc1nn(-c2ccc(F)cc2)c(C)c1S(=O)(=O)N1CCC(C(=O)NC2CC2)CC1	middle range
CCCn1ncc(N2CCC(C(=O)N3CCOCC3)CC2)cc1=O	lower range
Cc1cc(C)c2[nH]c3c(c(=O)c2c1)CN(CC(=O)Nc1cc(F)cc(F)c1)CC3	lower range
Cc1nc(-c2cn(C(C)C)c3ncccc23)sc1C(=O)N(C)Cc1ccccc1	upper range
CCC(Oc1ccc(-c2cnc3ccccc3n2)cc1)C(=O)N1CCN(c2ncccn2)CC1 (stereo not given)	upper range
COc1ccccc1C(=O)Nc1cnc(N2CCCC2)nc1	middle range
CCCCn1cc(S(=O)(=O)NCc2ccccn2)c2cccnc21	lower range
CCn1cc(CCN2CCC(C(=O)Nc3ccccc3C)CC2)c2cccnc21	lower range
CCOC(=O)C1=C(C)NC(=O)NC1c1nc2ccccc2n1CC (stereo not given)	lower range
CC(=O)N1c2ccc(S(=O)(=O)N3CCC(c4ccncc4)CC3)cc2CC1C (stereo not given)	lower range
CC(C)c1ccc(NC(=O)C2CCCN2S(=O)(=O)c2cc3c(cc2Cl)NC(=O)CO3)cc1 (stereo not given)	upper range
CCCCOc1ccc(NC(=O)c2cc(=O)c3ccc(C)cc3o2)c2cccnc12	middle range

---

experiment: gradient 5% acetonitrile 3 min, to 50% in 2 min, to 85% in 15 min, held 3 min, 100 µL/min; conditions: column: Zorbax Extend-C18 2.1 x 50 mm; eluents: water / acetonitrile, 0.1% formic acid
ASSAY METRIC: RP-LC retention time

MOLECULE	RESULT
CCOc1ccc(C(=O)N2CCc3nc(-c4ccc(OC)cc4)ncc3C2)cc1	962 s
CCCc1noc(-c2ccc(-n3cnc(C(=O)N4CCCC4)c3)nc2)n1	816 s
COc1ccc(-c2cc(C(F)(F)F)n3ncc(C(=O)O)c3n2)cc1OC	777 s
Cc1ccc2c(c1)N(S(C)(=O)=O)CCC(C(=O)Nc1ccccc1Br)O2 (stereo not given)	1040 s
CCCNC(=O)c1cc(=O)[nH]c2c(C)cccc12	647 s
COc1ccc2c(OCc3nnc4ccc(-c5ccccc5)nn34)ccnc2c1	690 s
CC1=NS(=O)(=O)N(C)C=C1C(=O)OCc1cc(F)ccc1F	935 s
COc1cc(NC(=O)NC(C)C(=O)N2CCc3ccccc32)cc(OC)c1 (stereo not given)	817 s
O=C(Cn1c(=O)cc(-c2nc(C3CC3)no2)c2ccccc21)NC1CCCCC1	932 s
COc1ccccc1CCC(=O)N1CCN(c2cc(-c3cccs3)[nH]n2)CC1	838 s

---

Reported RP-LC retention time values are given for each entry in this list.
assay: gradient 5% acetonitrile 3 min, to 50% in 2 min, to 85% in 15 min, held 3 min, 100 µL/min; details: column: Zorbax Extend-C18 2.1 x 50 mm; eluents: water / acetonitrile, 0.1% formic acid
ASSAY METRIC: RP-LC retention time

MOLECULE	ASSAY METRIC	RESULT
Cc1ccc(Nc2nccc(N(C)c3ccc4c(C)n(C)nc4c3)n2)cc1S(N)(=O)=O	RP-LC retention time	685 s
CCc1ccc(NC(=O)Cn2c(CC)nc3c(c2=O)CN(Cc2ccccc2)CC3)cc1	RP-LC retention time	710 s
CCOC(=O)C1CCN(c2cc3c(cc2NC(=O)NCCC(C)C)n(C)c(=O)n3C)CC1	RP-LC retention time	823 s
Cc1ccc2cc(CCC(=O)NCCc3ccccn3)c(=O)[nH]c2c1	RP-LC retention time	596 s
Cc1ccc(NC(=O)N2CCN(CCn3cnc4cccnc43)CC2)c(C)c1	RP-LC retention time	594 s
COCc1nc(N(C)Cc2ccccc2)ncc1C(=O)O	RP-LC retention time	804 s
COc1cccc(C2Cn3nnc(-c4nc(-c5ccccc5Cl)no4)c3CO2)c1 (stereo unspecified)	RP-LC retention time	1150 s
CCCNC(=O)CC1CCN(C(=O)c2[nH]c(C)cc2C)CC1	RP-LC retention time	661 s
CCOc1c(C)cc(S(=O)(=O)NCC(C)(O)COC)cc1C (stereo unspecified)	RP-LC retention time	752 s
CCc1noc(-c2ccc(=O)n(CC(=O)Nc3ccc(F)cc3)c2)n1	RP-LC retention time	1020 s
COc1ccc(C)cc1NC(=O)C(=O)NCCc1csc(-c2ccc(Cl)cc2)n1	RP-LC retention time	1280 s
Cc1nnc([C@@H]2CC(F)(F)CN2C(=O)c2ccc3ncccc3c2)o1	RP-LC retention time	607 s
O=C(C1CC(=O)N(C2CCCCC2)C1)N1CCC2(CC1)NCCc1c2[nH]c2ccccc12 (stereo unspecified)	RP-LC retention time	654 s
Cc1c(-c2noc(C3CCCCC3)n2)nnn1-c1ccccc1	RP-LC retention time	1160 s
CC(C)NC(=O)Cn1cnc2nc(N3CCCC(C(=O)NC4CC4)C3)sc2c1=O (stereo unspecified)	RP-LC retention time	608 s
CCc1nn2c(CNS(=O)(=O)c3ccc(OC)cc3)c(-c3ccccc3)nc2s1	RP-LC retention time	886 s
O=S(=O)(c1ccc2nncn2c1)N(Cc1ccccc1Cl)c1ccccc1	RP-LC retention time	885 s
CCOC(=O)c1[nH]c(C)c(C(=O)N2CCC(CC(=O)N3CCCCCC3)CC2)c1C	RP-LC retention time	739 s
O=C1CC(c2nc(-c3ccccn3)no2)CN1c1ccc2c(c1)OCO2 (stereo unspecified)	RP-LC retention time	707 s
Cc1oc(-c2ccc(NC(=O)Cc3ccc(F)cc3)cc2)nc1Cn1cccn1	RP-LC retention time	866 s
O=C(NCCC1CCN(S(=O)(=O)c2ccccc2)CC1)Nc1ccccc1	RP-LC retention time	856 s
